# Organism: Rattus norvegicus
# assayMethodText: Open TG-GATES - Regimen: Single
# Assay type: toxicity, organism-based, Sprague-Dawley
# Parameters: regimen Single, gender Male, age 6 weeks
# measurementConditions: in vivo, po, 100 mg/kg, 3 h, tissue Plasma, route gavage, dose level Low
Each entry gets label 0 if its ALP stays under 1000 IU/L, and label 1 if its ALP is 1000 IU/L or above.

Prompt: Quick check, ALP >= 1000 IU/L? CCc1cc(C(N)=S)ccn1 [ETHIONAMIDE]
Completion: label 0

Prompt: Could you please find out whether O=C(O)c1cn(C2CC2)c2cc(N3CCNCC3)c(F)cc2c1=O has ALP that meets 1000 IU/L or exceeds it?
Completion: label 0

Prompt: Determine whether measured ALP meets or exceeds 1000 IU/L for Clc1ccccc1CN1CCc2sccc2C1
Completion: label 1
